B1: INTS3 (parent)
chain: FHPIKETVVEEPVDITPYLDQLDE

# Variants of: B1
# assay_name: protein stability index of a GFP-peptide fusion (GPS, HEK-293T) (PSI 1-6); higher = more stable;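 further: lentivirally expressed fusions sorted by FACS into six bins by GFP to DsRed ratio, PSI derived from sequencing read proportions per bin multiplied by bin number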
# condition_info: c terminus: a fixed tail appended
measured_endpoint: protein stability index

variant_spec=H2P reported_result=5.03

Report protein stability index for every entry below.
1. T7M
2. F1C
3. V9E

[3.55, 5.32, 4.25]

Report protein stability index for every entry below.
1. E24H
2. E11S
3. D14W

1. 2.66
2. 2.81
3. 1.63

Report protein stability index for every entry below.
1. Y18H
2. D14L
3. D23E
4. V13N
5. D23A
6. D14Y

3.5
2.91
3.29
3.42
2.35
2.11
